Biological target: wild-type P. furiosus enzyme (Pyrococcus furiosus)
Construct: 6-His (N); made in house; host or cells: E. coli
Sequence (Q9HHB6 whole entry): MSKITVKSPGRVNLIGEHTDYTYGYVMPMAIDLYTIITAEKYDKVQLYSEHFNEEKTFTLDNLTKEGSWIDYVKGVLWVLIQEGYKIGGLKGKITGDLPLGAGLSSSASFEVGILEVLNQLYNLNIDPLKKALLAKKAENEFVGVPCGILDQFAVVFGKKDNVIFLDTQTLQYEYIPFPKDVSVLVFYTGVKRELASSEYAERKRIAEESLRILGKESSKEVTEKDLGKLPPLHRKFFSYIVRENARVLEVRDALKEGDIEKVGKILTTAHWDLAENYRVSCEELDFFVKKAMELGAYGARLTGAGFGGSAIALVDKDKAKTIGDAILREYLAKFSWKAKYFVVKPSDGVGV
Assay: GalK activity by ATP to ADP conversion (HPLC), wild-type enzyme
Assay type: biochemical
Conditions: 200 mM sugar, 100 mM ATP, 1 ug/ml enzyme, 60° C., 20 hours
# degree reaction proceeded to completion (ATP to ADP conversion), WT Pyrococcus furiosus values compiled below
Please report the result as a number followed by the unit.

Lab entry: wild-type P. furiosus enzyme (Pyrococcus furiosus) assay, compound O=C[C@@H](O)[C@@H](O)[C@H](O)[C@H](O)CO , degree reaction proceeded to completion (ATP to ADP conversion), WT Pyrococcus furiosus = 54%

Lab entry: wild-type P. furiosus enzyme (Pyrococcus furiosus) assay, compound O=C[C@H](O)[C@@H](O)[C@@H](O)[C@H](O)CO , degree reaction proceeded to completion (ATP to ADP conversion), WT Pyrococcus furiosus = 90%

Lab entry: wild-type P. furiosus enzyme (Pyrococcus furiosus) assay, compound O=C[C@H](O)[C@@H](O)[C@H](O)CO , degree reaction proceeded to completion (ATP to ADP conversion), WT Pyrococcus furiosus = 50%

Lab entry: wild-type P. furiosus enzyme (Pyrococcus furiosus) assay, compound C[C@H](O)[C@@H](O)[C@@H](O)[C@H](O)C=O , degree reaction proceeded to completion (ATP to ADP conversion), WT Pyrococcus furiosus = 40%

Lab entry: wild-type P. furiosus enzyme (Pyrococcus furiosus) assay, compound C[C@@H](O)[C@H](O)[C@H](O)[C@@H](O)C=O , degree reaction proceeded to completion (ATP to ADP conversion), WT Pyrococcus furiosus = 78%
